system: Vero E6 infected with SARS-CoV-2; test: SARS-CoV-2 infection rate relative to infected DMSO; higher = more infection, active = 60 or less; settings: 24 h
Reported SARS-CoV-2 infection rate values are given for each entry in this list.
Write it as a number; the unit % goes unstated.

Past entries and their recorded results:
CO[C@@]1(NC(=O)C2SC(=C(C(N)=O)C(=O)O)S2)C(=O)N2C(C(=O)O)=C(CSc3nnnn3C)CS[C@@H]21 (stereo partly drawn) [cefotetan] (10 µM) : 98
CCCCCCCCCC(=O)OCCN1CCN(CCCN2c3ccccc3Sc3ccc(C(F)(F)F)cc32)CC1 [fluphenazine-decanoate] (10 µM) : 112
Cc1ccc(C[N+](C)(C)C)o1 [5-methylfurmethiodide] (10 µM) : 117
CCC(c1ccccc1)c1c(O)c2ccccc2oc1=O (stereo not drawn) [phenprocoumon] (10 µM) : 102
Cc1cccc(Nc2cc(Cl)nc(SCC(=O)O)n2)c1C [pirinixic-acid] (10 µM) : 108

Query: SARS-CoV-2 infection rate; subject: N[C@H](C(=O)O)[C@H](O)c1ccc(O)c(O)c1 [droxidopa] (10 µM) 122

Similarly, CCC/N=C1\S/C(=C\c2ccc(OC[C@H](O)CO)c(Cl)c2)C(=O)N1c1ccccc1C [ponesimod] (10 µM) ? 108

Similarly, COc1cc(O)c(C(=O)c2ccccc2)cc1S(=O)(=O)O [sulisobenzone] (10 µM) ? 109

* * *

test system: Vero E6 infected with SARS-CoV-2; assay: inhibition of SARS-CoV-2 cytopathic effect; higher = more antiviral protection, active = above 15; settings: 100 nM; 48 h
readout.type: inhibition of SARS-CoV-2 cytopathic effect (%)
Write it as a number; the unit % goes unstated.

Past entries and their recorded results:
O=C(NN1C(=O)[C@@H]2[C@@H]3C=C[C@@H]([C@H]4C[C@@H]34)[C@@H]2C1=O)c1ccc(C(F)(F)F)cc1 : 2.71
COCCOc1ccc(N2CCN(CCn3ncc4c3nc(N)n3nc(-c5ccco5)nc43)CC2)cc1 : 3.21
c1ccc2nc(N3CCNCC3)ccc2c1 : -0.43
O=C(O)CNC(=O)c1c(O)c2ccccc2n(Cc2ccccc2)c1=O : 0.41

Now, please, on to the next molecule.
Record lookup: for Vero E6 infected with SARS-CoV-2, what inhibition of SARS-CoV-2 cytopathic effect belongs to COC(=O)C1=C(C)NC(C)=C(C(=O)OC(C)C)[C@@H]1c1cccc2nonc12 ? 1.21

* * *

tested on: Vero E6 infected with SARS-CoV-2; test: SARS-CoV-2 infection rate relative to infected DMSO; higher = more infection, active = 60 or less; conditions: 24 h
readout.type: SARS-CoV-2 infection rate (%)
Write it as a number; the unit % goes unstated.

Past entries and their recorded results:
CCc1c(C(=O)NCCc2ccc(N3CCCCC3)cc2)[nH]c2ccc(Cl)cc12 (10 µM) : 124
CC(=O)O[C@]1(C(C)=O)CC[C@H]2[C@@H]3C=C(C)C4=CC(=O)CC[C@]4(C)[C@H]3CC[C@@]21C [megestrol-acetate] (10 µM) : 100

Query: SARS-CoV-2 infection rate; subject: CC(=O)Nc1ccc(OCC(O)CNC(C)C)cc1 (centres undefined) [practolol] (10 µM) 106

Similarly, N[C@@H]1CONC1=O [cycloserine-(D)] (10 µM) ? 92.5

* * *

system: Vero E6 infected with SARS-CoV-2; assay: inhibition of SARS-CoV-2 cytopathic effect; higher = more antiviral protection, active = above 15; details: 833.33 nM; 48 h
readout.type: inhibition of SARS-CoV-2 cytopathic effect (%)
Write it as a number; the unit % goes unstated.

Query: inhibition of SARS-CoV-2 cytopathic effect; subject: COc1cc(C[C@@H]2NCCc3cc(O)c(O)cc32)cc(OC)c1OC 0.62

Similarly, OC(CNCC(O)C1CCc2cc(F)ccc2O1)C1CCc2cc(F)ccc2O1 (stereo not given) ? -2.81

Similarly, CNc1ccc([N+](=O)[O-])cc1-n1cnc(-c2ccc(C(F)(F)F)cc2)c1 ? 1.02

Similarly, Nc1ccc(S(=O)(=O)Nc2ccc(Cl)nn2)cc1 ? -1.32

* * *

test system: Vero E6 infected with SARS-CoV-2; assay: morphology score (similarity to uninfected cells); higher = more like uninfected cells; details: 24 h
Cut-off 0.05 on morphology score, inclusive. At or above means 1.0; below means 0.0.

Sample answers from the record:
O=C1O[C@H](CO)[C@@H](O)[C@H](O)[C@H]1O [gluconolactone] (10 µM) : 1.0
O=[N+]([O-])O[C@@H]1CO[C@H]2[C@@H]1OC[C@@H]2O [isosorbide-mononitrate] (10 µM) : 0.0
O=C(Nc1nc2ccc(NC(=O)C34CC5CC(CC(C5)C3)C4)cc2s1)c1ccccc1 (0.833333 µM) : 0.0
c1ccc2sc(SN3CCOCC3)nc2c1 [N-oxydiethylenebenzothiazole-2-sulfenamide] (10 µM) : 0.0
C=CC(=O)c1ccc2ccccc2c1 [JAK3-inhibitor-V] (10 µM) : 0.0
C=CC(=O)Nc1cccc(Oc2nc(Nc3ccc(N4CCN(C)CC4)cc3)ncc2Cl)c1 (10 µM) : 0.0
CC(C)NC[C@@H](O)COc1ccccc1-n1cccc1 (racemic) [isamoltane] (10 µM) : 0.0
c1ccc(-c2ccc(C(c3ccccc3)n3ccnc3)cc2)cc1 (stereo not drawn) [bifonazole] (10 µM) : 1.0
COc1cc(Nc2nc3ccccc3nc2NS(=O)(=O)c2ccc(NC(=O)c3ccc(C)c(OC)c3)cc2)cc(OC)c1 (10 µM) : 0.0
OCc1c[nH]c2ccccc12 [indole-3-carbinol] (10 µM) : 1.0

Please indicate if the recorded morphology score for Nc1ccc(S(=O)(=O)c2ccc(N)cc2)cc1 [dapsone] (10 µM) meets or exceeds 0.05. 0.0

Similarly, CC(=O)Oc1ccccc1C(=O)Oc1ccccc1C(=O)O [acetylsalicylsalicylic-acid] (10 µM) ? 0.0

Similarly, CN1CCC(=C2c3ccccc3CCc3sccc32)CC1 [pizotifen] (10 µM) ? 1.0

* * *

test system: Vero E6 infected with SARS-CoV-2; assay: inhibition of SARS-CoV-2 cytopathic effect; higher = more antiviral protection, active = above 15; conditions: 1 nM; 48 h
Reported inhibition of SARS-CoV-2 cytopathic effect values are given for each entry in this list.
Write it as a number; the unit % goes unstated.

COc1ccc(-c2cc(=O)c3c(OC)c(OC)c(OC)c(OC)c3o2)cc1OC : -1.63
CN1CCC(OC(c2ccccc2)c2ccccc2)CC1 : 0.97
Clc1ccc(C(OCCN2CCCCC2)c2ccccc2)cc1 (stereo not given) : -0.8

Query: inhibition of SARS-CoV-2 cytopathic effect; subject: CCC1(CC)C(=O)NC(=O)N(C)C1=O 0.2

Similarly, O=c1cc(N2CCOCC2)oc2c1ccc1ccccc12 ? -1.26

Similarly, CC(=O)c1c(C)c2cnc(Nc3ccc(N4CCNCC4)cn3)nc2n(C2CCCC2)c1=O ? 2.16

Similarly, NCCNC(=O)c1ccc(Cl)cn1 [lazabemide] ? 1.32

* * *

system: Vero E6 infected with SARS-CoV-2; experiment: inhibition of SARS-CoV-2 cytopathic effect; higher = more antiviral protection, active = above 15; conditions: 100 nM; 48 h
Reported inhibition of SARS-CoV-2 cytopathic effect values are given for each entry in this list.
Write it as a number; the unit % goes unstated.

Past entries and their recorded results:
CC(=O)CC(c1ccccc1)c1c(O)c2ccccc2oc1=O (centres undefined) : -9.92
Oc1cc2c(cc1O)[C@H](Cc1cccc3ccccc13)NCC2 : -0.84
CC(C)NC[C@@H](O)COc1ccccc1-n1cccc1 (racemic) : 1.76

Now, please, on to the next compound.
Record lookup: for Vero E6 infected with SARS-CoV-2, what inhibition of SARS-CoV-2 cytopathic effect belongs to CCCCCCCCCCCCC/C=C/[C@@H](O)[C@@H](N)CO[P@](=O)(O)OCC[N+](C)(C)C ? 3.74

* * *

tested on: Vero E6 infected with SARS-CoV-2; experiment: inhibition of SARS-CoV-2 cytopathic effect; higher = more antiviral protection, active = above 15; conditions: 100 nM; 48 h
Reported inhibition of SARS-CoV-2 cytopathic effect values are given for each entry in this list.
Write it as a number; the unit % goes unstated.

Past entries and their recorded results:
Clc1cccc(Nc2nnc(-c3ccccc3)c3ccccc23)c1 : 2.13
CCOC(=O)C1=C[C@@H](OC(CC)CC)[C@H](NC(C)=O)[C@@H](N)C1 [oseltamivir-phosphate] : -4.22
CCN1CCN(Cc2ccc(C(=O)Nc3ccc(C)c(Oc4ccc5c(c4)CC(=O)N5)c3)cc2C(F)(F)F)CC1 : 1.47

Record lookup: for Vero E6 infected with SARS-CoV-2, what inhibition of SARS-CoV-2 cytopathic effect belongs to O=C(Nc1ccc(OC(F)(F)F)cc1)c1sccc1NCc1ccnc2ccccc12 ? 4.81

Similarly, CN(C)c1ccc(/C=C2\C(=O)Nc3ccccc32)cc1 ? 1.44

Similarly, O=C1CC[C@@](c2ccccc2)(C2CCN(Cc3ccc(I)cc3)CC2)C(=O)N1 [iododexetimide] ? -0.5
